B1: IKZF1 (parent)
chain: HIKLHSGEKPFKCHLCNYACRRRD

- Variants of: B1
- Assay Overview: protein stability index of a GFP-peptide fusion (GPS, HEK-293T) (PSI 1-6); higher = more stable;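 also: lentivirally expressed fusions sorted by FACS into six bins by GFP to DsRed ratio, PSI derived from sequencing read proportions per bin multiplied by bin number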
- Experimental Context: c terminus: a fixed tail appended
Readout Label: protein stability index
I'd appreciate a reply containing only the number, no unit.

| Residue Change | Assay Result |
| --- | --- |
| C16S | 2.96 |

Note protein stability index for the variant shown: A19E
2.1

Note protein stability index for the variant shown: H14W
2.23
